Source of measurements: patent US20240383904A1

- target-or-system: MAGL (Homo sapiens, UniProt Q99685)
- test-method-notes: 2-AG assay: MAGL inhibitory activity by hydrolysis of 2-arachidonoylglycerol to arachidonic acid, followed by mass spectrometry
- Type: biochemical
- measurement-context: 15 min preincubation, 30 min reaction at RT, 8 μM 2-arachidonoylglycerol
log10(IC50) values by entry
Record value = log10 of IC50 given in nM.

Some compounds with recorded log10(IC50):
N#Cc1ncc(CC2CC3(C2)CN(C(=O)N2CC4(COC(=O)N4)C2)C3)cc1C(F)(F)F [Example 261] ... -0.37
CS(=N)(=O)c1cc(CC2CC3(C2)CN(C(=O)N2CC4(CCC(=O)N4)C2)C3)cc(C(F)(F)F)c1 (stereo not shown) [Example 255] ... 0.62
N=[S@](=O)(c1cccc(CC2CC3(C2)CN(C(=O)N2CC4(CCCC(=O)N4)C2)C3)c1)C(F)(F)F [Example 293] ... 1.84
N#Cc1cc(CC2CC3(C2)CN(C(=O)N2CC4(CCCC(=O)N4)C2)C3)ccc1C(F)(F)F [Example 271] ... 1.50
Cc1cc(C(F)F)nn1CC1CC2(C1)CN(C(=O)N1CC3(CCC(=O)N3)C1)C2 [Example 347] ... 0.91
Cn1ncc(CC2CC3(C2)CN(C(=O)N2CC4(CCCC(=O)N4)C2)C3)c1C(F)(F)F [Example 276] ... 1.97

// next entry
What the record says about O=C1CCC2(CN(C(=O)N3CC4(CCC(Cc5ccc(C(F)(F)F)cn5)CC4)C3)C2)N1 [Example 60] : log10(IC50) is -0.13

###

- target-or-system: UniProt:Q99685
- Sequence (Q99685 1-303): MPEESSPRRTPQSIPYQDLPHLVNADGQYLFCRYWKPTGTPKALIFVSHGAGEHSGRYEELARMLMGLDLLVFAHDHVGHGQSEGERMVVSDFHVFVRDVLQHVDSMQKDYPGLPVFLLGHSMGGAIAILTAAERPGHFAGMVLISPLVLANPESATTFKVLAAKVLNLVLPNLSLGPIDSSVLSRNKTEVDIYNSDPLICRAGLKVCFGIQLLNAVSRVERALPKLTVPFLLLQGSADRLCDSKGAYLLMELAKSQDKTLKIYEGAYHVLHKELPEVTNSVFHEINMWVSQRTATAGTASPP
- test-method-notes: 2-AG assay: MAGL inhibitory activity by hydrolysis of 2-arachidonoylglycerol to arachidonic acid, followed by mass spectrometry
- Assay type: biochemical
- measurement-context: 15 min preincubation, 30 min reaction at RT, 8 μM 2-arachidonoylglycerol
IC50 values by entry
The reply should be a number in µM, with the unit left off.

Some molecules with recorded IC50:
O=C1CCC2(CN(C(=O)N3CC4(CC(Cc5ccc6[nH]ncc6n5)C4)C3)C2)N1 ... 0.0882
O=C1COCC2(CN(C(=O)N3CC4(CC(Cn5ccc(C(F)(F)F)n5)C4)C3)C2)N1 ... 0.0528
O=C1CCC2(CN(C(=O)N3CC4(CC(Cc5ncc(Cl)cc5F)C4)C3)C2)N1 ... 0.00169

// next entry
IC50 value, target or system UniProt:Q99685, for "O=C1NC2(CO1)CN(C(=O)N1CC3(C1)CN(S(=O)(=O)c1ccc(F)cc1C(F)(F)F)C3)C2" : 0.00251

###

- target-or-system: MAGL (Homo sapiens, UniProt Q99685)
- Sequence (Q99685 1-303): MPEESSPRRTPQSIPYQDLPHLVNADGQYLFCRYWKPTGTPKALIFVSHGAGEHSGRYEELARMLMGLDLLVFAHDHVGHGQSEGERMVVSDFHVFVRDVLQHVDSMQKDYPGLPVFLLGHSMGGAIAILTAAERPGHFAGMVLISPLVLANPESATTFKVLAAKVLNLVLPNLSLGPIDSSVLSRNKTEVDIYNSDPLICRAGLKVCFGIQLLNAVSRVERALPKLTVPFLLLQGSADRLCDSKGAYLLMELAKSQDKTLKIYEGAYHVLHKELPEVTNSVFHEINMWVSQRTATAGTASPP
- test-method-notes: 2-AG assay: MAGL inhibitory activity by hydrolysis of 2-arachidonoylglycerol to arachidonic acid, followed by mass spectrometry
- Format: biochemical
- measurement-context: 15 min preincubation, 30 min reaction at RT, 8 μM 2-arachidonoylglycerol
reported-endpoint: pIC50
When answering, recall that pIC50 equals minus log10 of the concentration in mol/L, and write that number alone.

Some molecules with recorded pIC50:
CS(=O)(=O)c1ccc(CC2CCC3(C2)CN(C(=O)N2CC4(COC(=O)N4)C2)C3)cc1C(F)(F)F (stereo not shown) ... 9.68
O=C1COCC2(CN(C(=O)N3CC4(CCN(Cc5ccc(C(F)(F)F)cn5)C4)C3)C2)N1 ... 6.03
N#Cc1cc(OC2CC3(C2)CN(C(=O)N2CC4(CCC(=O)N4)C2)C3)ccc1C(F)(F)F ... 7.32

// next entry
pIC50 value, target or system MAGL (Homo sapiens, UniProt Q99685), for "O=C1COCC2(CN(C(=O)N3CC4(C3)CN(S(=O)(=O)c3cccc(OC(F)(F)F)c3)C4)C2)N1" : 6.01
